# TESTED TARGET: binding partner of C5A (XPA23)
# TEST SUMMARY: Biacore, K-off
PROPERTY MEASURED: log10 fold difference in affinity vs original (log10 of the value in fold)
Each number you see is log10 of fold difference in affinity vs original, and the unit inside the log is fold.

Before answering, review these 4 worked examples.
BINDER	MEASURED NUMBER
C5A (XPA23) VH I51Q (antibody, V domains shown) VH: EVQLLESGGGLVQPGGSLRLSCAASGFTFSKYFMFWVRQAPGKGLEWVSVQSPSGGMTRYADSVKGRFTISRDNSKNTLYLQMNSLRAEDTAVYYCARVGYGGNSDYWGQGTLVTVSS VL: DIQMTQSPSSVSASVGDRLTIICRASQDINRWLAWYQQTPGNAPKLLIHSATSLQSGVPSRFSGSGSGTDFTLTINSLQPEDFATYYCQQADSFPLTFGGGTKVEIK	-0.08
C5A (XPA23) VH G55K (antibody, V domains shown) VH: EVQLLESGGGLVQPGGSLRLSCAASGFTFSKYFMFWVRQAPGKGLEWVSVISPSKGMTRYADSVKGRFTISRDNSKNTLYLQMNSLRAEDTAVYYCARVGYGGNSDYWGQGTLVTVSS VL: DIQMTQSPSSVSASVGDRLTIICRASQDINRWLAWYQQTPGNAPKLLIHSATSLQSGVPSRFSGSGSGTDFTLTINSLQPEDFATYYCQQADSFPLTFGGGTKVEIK	-0.96
C5A (XPA23) VH S54N (antibody, V domains shown) VH: EVQLLESGGGLVQPGGSLRLSCAASGFTFSKYFMFWVRQAPGKGLEWVSVISPNGGMTRYADSVKGRFTISRDNSKNTLYLQMNSLRAEDTAVYYCARVGYGGNSDYWGQGTLVTVSS VL: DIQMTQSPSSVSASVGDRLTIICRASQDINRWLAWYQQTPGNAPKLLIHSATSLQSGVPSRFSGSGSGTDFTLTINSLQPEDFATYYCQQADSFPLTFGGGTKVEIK	-1.10
C5A (XPA23) VH V50N (antibody, V domains shown) VH: EVQLLESGGGLVQPGGSLRLSCAASGFTFSKYFMFWVRQAPGKGLEWVSNISPSGGMTRYADSVKGRFTISRDNSKNTLYLQMNSLRAEDTAVYYCARVGYGGNSDYWGQGTLVTVSS VL: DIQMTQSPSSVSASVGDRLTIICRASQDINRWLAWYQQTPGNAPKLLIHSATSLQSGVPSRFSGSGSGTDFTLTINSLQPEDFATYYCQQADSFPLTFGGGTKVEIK	-1.52

Please examine the following record next.
# input Suppose we examine the binder C5A (XPA23) VH G55R (antibody, V domains shown) VH: EVQLLESGGGLVQPGGSLRLSCAASGFTFSKYFMFWVRQAPGKGLEWVSVISPSRGMTRYADSVKGRFTISRDNSKNTLYLQMNSLRAEDTAVYYCARVGYGGNSDYWGQGTLVTVSS VL: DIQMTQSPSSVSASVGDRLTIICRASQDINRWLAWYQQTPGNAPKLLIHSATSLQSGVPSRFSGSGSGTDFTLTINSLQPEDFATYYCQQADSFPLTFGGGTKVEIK ; what log10 fold difference in affinity vs original value has been reported?
# output -0.02
